Chem Smiles: O=C(O)CC1=NN(c2ccc(Cl)cc2Cl)C(=O)C1
melting point: 179 to 181 °C

Chem Smiles: O=c1cc(CCl)nc2ccccn12
melting point: 173 to 175 °C

Chem Smiles: O=c1[nH]nnn1-c1ccccc1
melting point: 188 to 189 °C

Chem Smiles: Nc1nonc1-c1ccc(Cl)cc1Cl
melting point: 105 to 107 °C

Chem Smiles: O=C(O)CNC(=O)NCc1ccco1
melting point: 159 to 161 °C

Chem Smiles: CC(=O)c1cc(C)cc(C(C)=O)c1O
melting point: 50 to 52 °C

----------
Below, each of the compounds is paired with its reported melting point value.
Property: melting point

Compound: NC(=O)Nc1cccc(N)c1
Property: melting point
Obs Value: 125 to 127 °C
--
Compound: CNc1ncc(C(=O)O)s1
Property: melting point
Obs Value: 159 to 161 °C
--
Compound: O=c1[nH]nc2ccc(Cl)nn12
Property: melting point
Obs Value: 269 to 271 °C
--
Compound: CCOC(=O)c1sc2nc(C(C)Cl)[nH]c(=O)c2c1C (stereo unspecified)
Property: melting point
Obs Value: 167 to 169 °C
--
Compound: O=S1(=O)Nc2cccc3cccc1c23
Property: melting point
Obs Value: 175 to 177 °C
--
Compound: O=C(O)c1cc(C2CC2)nc2onc(-c3ccccc3)c12
Property: melting point
Obs Value: 213 to 215 °C
--
Compound: N#CCc1ccc(OCc2ccc(Cl)nc2)cc1
Property: melting point
Obs Value: 99 to 101 °C
--
Compound: CN(C)C(=O)Sc1cnc2nc(C#N)c(C#N)n2c1
Property: melting point
Obs Value: 180 to 182 °C
--
Compound: Cc1cccc(C2(C(F)(F)F)CCCN2)c1C (stereo unspecified)
Property: melting point
Obs Value: 45 to 47 °C
--
Compound: CC(=O)Nc1cccc(N=C=S)c1
Property: melting point
Obs Value: 154 to 156 °C
--
Compound: O=C(O)c1ccccc1OCc1ccccc1Br
Property: melting point
Obs Value: 129 to 131 °C
--
Compound: COc1cc([N+](=O)[O-])ccc1I
Property: melting point
Obs Value: 127 to 129 °C
--
Compound: CC1(C)SC[C@H](C(=O)O)NC1=O
Property: melting point
Obs Value: 205 to 207 °C
--
Compound: CSc1ccc(C(=O)O)cc1[N+](=O)[O-]
Property: melting point
Obs Value: 225 to 227 °C
--
Compound: O=C(O)CN1N=C(C(F)(F)F)CC1=O
Property: melting point
Obs Value: 218 to 220 °C
--
Compound: CC(C)(NC(=O)NCc1cccc(Br)c1)C(=O)O
Property: melting point
Obs Value: 159 to 161 °C
--
Compound: Nc1nnc(Cc2ccc(F)cc2)[nH]1
Property: melting point
Obs Value: 197 to 199 °C
--
Compound: Nc1nc2ccc(Oc3ccccc3)cc2s1
Property: melting point
Obs Value: 159 to 161 °C
--
Compound: O=C(CCl)Nc1ccccc1C(=O)NC1CC1
Property: melting point
Obs Value: 170 to 172 °C
--
Compound: COc1ccc(SCCC(=O)O)cc1OC
Property: melting point
Obs Value: 72 to 74 °C
--
Compound: Cc1cc(S(=O)(=O)Cl)ccc1OCCCC(=O)O
Property: melting point
Obs Value: 135 to 137 °C
--
Compound: CC1C=CC2C(=O)N(Cc3ccccc3)C(=O)C2C1C(=O)O (stereo unspecified)
Property: melting point
Obs Value: 204 to 206 °C
--
Compound: CCOC(=O)C1CC(=O)NN1c1ncccc1Cl (stereo unspecified)
Property: melting point
Obs Value: 135 to 137 °C
--
Compound: Cn1c(=O)c2c(S)nc(C(C)(C)C)nc2n(C)c1=O
Property: melting point
Obs Value: 143 to 145 °C
--
Compound: Nc1ccc(OCC2CCOCC2)cc1
Property: melting point
Obs Value: 108 to 110 °C
--
Compound: CNS(=O)(=O)c1ccccc1N1CCC(N)CC1
Property: melting point
Obs Value: 119 to 121 °C
--
Compound: CC(C)Oc1cc(Br)cc(C(=O)O)c1
Property: melting point
Obs Value: 126 to 128 °C
--
Compound: CCNC(=O)c1cccc(NC(=O)CCl)c1
Property: melting point
Obs Value: 173 to 175 °C
--
Compound: CC(C)(C)C(N)=S
Property: melting point
Obs Value: 114 to 116 °C
--
Compound: O=C(CCl)Nc1ccc([N+](=O)[O-])cc1Br
Property: melting point
Obs Value: 165 to 167 °C
--
Compound: Cc1cc2cc(Cl)cc(Cl)c2[nH]1
Property: melting point
Obs Value: 49 to 51 °C
--
Compound: O=C(CCl)c1cn(-c2cccc(C(F)(F)F)c2)nn1
Property: melting point
Obs Value: 162 to 164 °C
--
Compound: CNC(=O)c1cc(Cl)ccc1[N+](=O)[O-]
Property: melting point
Obs Value: 137 to 139 °C
--
Compound: CCOc1cc(N)ccc1OC
Property: melting point
Obs Value: 77 to 79 °C
--
Compound: CC(C)(C)c1ccc(C=C[N+](=O)[O-])cc1
Property: melting point
Obs Value: 44 to 46 °C
--
Compound: O=C(O)CCCc1ccc2c(c1)CC(=O)N2
Property: melting point
Obs Value: 180 to 182 °C
--
Compound: C=CCc1ccc(OCC(=O)O)c(OC)c1
Property: melting point
Obs Value: 169 to 172 °C
--
Compound: O=C1CN(c2ccc(O)cc2)C(=O)N1
Property: melting point
Obs Value: 325 to 327 °C
--
Compound: O=S(=O)(Cl)c1cc(Cl)c(Br)s1
Property: melting point
Obs Value: 61 to 63 °C
--
Compound: O=C(O)c1cc(N/N=C/c2ccccc2Br)ccc1Cl
Property: melting point
Obs Value: 180 to 182 °C
--
Compound: Nc1ncc([N+](=O)[O-])cc1C(=O)O
Property: melting point
Obs Value: 239 to 241 °C
